The reader will find reported GI50 values listed item by item below.
Test system: SK-OV-3 ovarian
run.description: NCI tumour cell line growth inhibition, 48 h

Solved entries:
{"compound": "CN(C)c1ccc2[nH]c(O)c(C=Nc3ccc(S(N)(=O)=O)cc3)c2c1", "GI50": "> 25 µM"}
{"compound": "COc1cc(C(=O)O)ccc1NC(=O)[C@@H]1N[C@@H](CC(C)(C)C)[C@](C#N)(c2ccc(Cl)cc2F)[C@H]1c1cccc(Cl)c1F", "GI50": "7.02 µM"}
{"compound": "C=C1C(=O)O[C@H]2[C@H]1CC/C(COC(=O)NCCc1c[nH]c3ccccc13)=C\\CC[C@@]1(C)O[C@@H]21", "GI50": "12.5 µM"}
{"compound": "CCN(CC)CCCC(C)N/C(c1cccc(OC)c1)=c1\\c(=O)[nH]n(-c2c3ccccc3nc3ccccc23)c(=O)\\c1=C(/NC(C)CCCN(CC)CC)c1cccc(OC)c1 (stereo not drawn)", "GI50": "2.23 µM"}
{"compound": "COc1cc2c3c(n(CCCn4ccnc4)c(=O)c2cc1OC)-c1ccccc1C3=O", "GI50": "1.13 µM"}

// sample Cc1cc(Nc2nc(N3CCOCC3)nc3ccccc23)n[nH]1 , its GI50 was 3.69 µM

// sample O=C(Nc1cccc(-c2nc3ccccc3[nH]2)c1)c1cccc(NC(=O)c2ccco2)c1 , its GI50 was 2.35 µM

// sample O=c1[nH]cnc2c1nnn2[C@@H]1O[C@H](CO)[C@@H](O)[C@H]1O , its GI50 was 0.868 µM

---

Tested on: OVCAR-8 ovarian
run.description: NCI tumour cell line growth inhibition, 48 h
quantity.measured: GI50

Solved entries:
{"chemical.string": "COc1ccc2c(c1)/C(=C/c1c(-c3ccc(C)cc3)nc3sc(C)cn13)C(=O)N2", "GI50": "12400 nM"}
{"chemical.string": "CC(=O)[CH-]C(C)=O.CC(=O)[CH-]C(C)=O.CC(=O)[CH-]C(C)=O.[Cl-].[Hf+4]", "GI50": "> 100000 nM"}
{"chemical.string": "C=C1C(=O)O[C@H]2[C@H]1CC/C(COC(=O)N[C@@H](Cc1c[nH]c3ccccc13)C(=O)OC)=C\\CC[C@@]1(C)O[C@@H]21", "GI50": "2620 nM"}

Note: attention shifts to another entry.
// sample C/C(=C\c1ccn(-c2ccc(N)cc2C(F)(F)F)n1)[C@@H]1C[C@@H]2O[C@]2(C)CCC[C@H](C)[C@H](O)[C@@H](C)C(=O)C(C)(C)[C@@H](O)CC(=O)O1 , its GI50 was 506 nM

---

System: NCI-H23 lung
run.description: NCI tumour cell line growth inhibition, 48 h; in the data active = GI50 below about 0.43 µM; inactive = the rest
*1 amine or outer side, *2 acyl side, *3 side chain or, on linkers, in order; H or OH if unused. Where a SMILES comes first, the peptide text is derived from it. CO = O=C([*:1])[*:2]
Response enum: active, inactive

The examples below pair each entry with its known result.
{"compound": "Cc1ccc(-c2nc3nc(-c4ccc(Cl)cc4)nc(N4CCCNCC4)c3o2)cc1", "category": "inactive"}
{"compound": "O=c1[nH]cnc2c1nnn2[C@@H]1O[C@H](CO)[C@@H](O)[C@H]1O", "category": "inactive"}
{"compound": "CCN(CC)CCCC(C)N/C(c1cccc(OC)c1)=c1\\c(=O)[nH]n(-c2c3ccccc3nc3ccccc23)c(=O)\\c1=C(/NC(C)CCCN(CC)CC)c1cccc(OC)c1 (stereo unspecified)", "category": "inactive"}

Assay result, entry O=[N+]([O-])c1ccccc1/C=C/C=C1c2ccccc2-c2ccccc21 — outcome?
inactive

Assay result, entry CC1=C([Se]CC(OC(=O)[C@@H](CSSC(C)(C)C)NC(=O)C(C)(C)C)C(=O)NCCCCCC(=O)OCc2ccccc2)C(=O)c2ccccc2C1=O (stereo partly specified) — outcome?
inactive

Assay result, entry CC(C)C(NC(=O)C(CCCN=C(N)N)NC(=O)NC(Cc1ccccc1)C(=O)O)C(=O)NC(C=O)CCCN=C(N)N (stereo not drawn) ({Phe-CO}-Arg-Val-Arg-aldehyde; configuration not given here) — outcome?
inactive

Assay result, entry C[C@@H](Oc1cc(-c2cnn(C3CC4(CCNCC4)C3)c2)cnc1N)c1c(F)ccc(Cl)c1Cl — outcome?
inactive

Assay result, entry CN1CCN(Cc2ccc(NC(=O)c3[nH]ncc3Nc3ccnc4ccsc34)cc2)CC1 — outcome?
inactive

Assay result, entry C=C1C(=O)O[C@H]2[C@H]1CC/C(Cn1cc(Cn3ccc4cc(Cl)ccc43)nn1)=C\CC[C@@]1(C)O[C@@H]21 — outcome?
inactive

Assay result, entry CCC[CH2][Sn]([CH2]CCC)([O]C(=O)c1cccc(F)c1F)[O][Sn]([CH2]CCC)([CH2]CCC)[O]C(=O)c1cccc(F)c1F — outcome?
active

Assay result, entry CNC(=O)c1ccc(Nc2nc(OC3CCCC3)c3c(-c4ccc5nc(C)oc5c4)c[nH]c3n2)c(OC)c1 — outcome?
inactive

Assay result, entry CCC(=O)Nc1ccc2c(c1)CN1C(=O)c3ccccc3C1=N2 — outcome?
inactive

Assay result, entry O=C1CC(N2C(=O)/C(=C/C(Cl)=C\c3ccc([N+](=O)[O-])cc3)SC2=S)C(=O)N1c1ccc(Cl)cc1 (stereo unspecified) — outcome?
inactive

Assay result, entry Cc1cc(Nc2ncc(Cl)c(Nc3ccccc3S(=O)(=O)C(C)C)n2)c(OC(C)C)cc1C1CCNCC1 — outcome?
inactive

Assay result, entry C[C@]12CC[C@H]3[C@@H](CC=C4C[C@@H](O)CC[C@@]43C)[C@@H]1C/C(=C\c1cccc(OCCCn3ccnc3)c1)[C@@H]2O — outcome?
inactive

Assay result, entry COc1cc(/C=C2\C[C@H]3[C@@H]4CC=C5C[C@@H](OC(C)=O)CC[C@]5(C)[C@H]4CC[C@]3(C)[C@H]2OC(C)=O)ccc1OCCCn1ccnc1 — outcome?
inactive
